# Experiment: The drug is tested on the gut metagenome community of MV25 with ENA study accession number: PRJEB31790 and ENA sample accession number: SAMEA5537506 for biotransformation. The drug concentrations were measured over 9 timepoints collected between 0 and 24 hours of incubation by liquid-chromatography-coupled mass spectrometry (LC–MS)
# Type: ADME
# Parameters: dose 2 uM, timepoint 0, 1, 2, 4, 6, 8, 12, 18, 24 hours
# Condition Parameters: 2 µM
Measurement Name: Bacterial Biotransformation

CC(=O)OCC(CCn1cnc2cnc(N)nc21)COC(C)=O: Compound metabolized
C[C@@H]1C[C@H]2[C@@H]3CCC4=CC(=O)C=C[C@]4(C)[C@@]3(F)[C@@H](O)C[C@]2(C)[C@@]1(O)C(=O)CO: Compound NOT metabolized
COc1ccc([C@@H]2Sc3ccccc3N(CCN(C)C)C(=O)[C@@H]2OC(C)=O)cc1: Compound NOT metabolized
C#C[C@]1(OC(C)=O)CC[C@H]2[C@@H]3CCC4=CC(=O)CC[C@@H]4[C@H]3CC[C@@]21C [NORETHINDRONE ACETATE]: Compound metabolized
